test: Trial B: pharmacokinetics following single and repeated doses in healthy young male subjects; assay type: in vivo, humans; conditions: male, human, in vivo, oral, 100 mg, single dose 100 mg eslicarbazepine acetate, n=6; read-out: Mean apparent t½ (%CV) (converted)
observed-property: half-life (h)
Give just the numeric value; h need not be written.

Given NC(=O)N1c2ccccc2C[C@H](O)c2ccccc21 [eslicarbazepine] , state its recorded half-life. 9.3

====

assay: Trial B: pharmacokinetics following single and repeated doses in healthy young male subjects; format: in vivo, humans; conditions: male, human, in vivo, oral, 400 mg, single dose 400 mg eslicarbazepine acetate, n=6; read-out: Mean apparent t½ (%CV) (converted)
observed-property: half-life
A bare number is not enough; add the unit after it.

Given NC(=O)N1c2ccccc2C[C@H](O)c2ccccc21 [eslicarbazepine] , state its recorded half-life. 11.7 h
